Taken from patent US9566312B2.

# System: peripheral blood mononuclear cells (PBMC)
# ASSAY OVERVIEW: Anti-proliferative or immunosuppressive activity, BrdU incorporation in PHA-stimulated PBMC
# Format: cell-based
# ASSAY SETUP: PHA 3 μg/ml, 60 hour compound treatment; read-out: EMV PBMC IC50
Starred links: 1 amine or outer side, 2 acyl side, 3 side chain; linkers in the order of their positions; H or OH if unused. Non-standard residues stand in square brackets, D forms with d. Residues, ends and D or L forms follow the SMILES beside them. X56 = CCN1CCN(C(=O)OC[C@@H](C)[C@@H](C(=O)[*:2])N(C)[*:1])CC1; X69 = C[C@H](CCCN1CCC(C(N)=O)CC1)[C@@H](C(=O)[*:2])N(C)[*:1]; X1 = COC[C@@H]1CN(C[C@H](C)[C@@H](C(=O)[*:2])N(C)[*:1])CCO1; X18 = C[C@H](CCC(C)(C)O)[C@@H](C(=O)[*:2])N(C)[*:1]; MeBmt = C/C=C/C[C@@H](C)[C@@H](O)[C@H](NC)C(=O)O; X13 = C[C@H](CC#N)[C@@H](C(=O)[*:2])N(C)[*:1]; NMeL = CN[C@@H](CC(C)C)C(=O)O; NMeV = CN[C@H](C(=O)O)C(C)C; dNMeA = CN[C@H](C)C(=O)O; Abu = CC[C@H](N)C(=O)O
Assign labels as follows, please: true (1) for IC50 below 9 µM; false (0) for IC50 equal to or exceeding 9 µM.

[in] A record lists C/C=C/C[C@@H](C)[C@@H](O)[C@H]1C(=O)N[C@@H](CC)C(=O)N(C)[C@H](C)C(=O)N(C)[C@@H]([C@H](C)COCCOC(=O)N2CCN(C)CC2)C(=O)N[C@@H](C(C)C)C(=O)N(C)[C@@H](CC(C)C)C(=O)N[C@@H](C)C(=O)N[C@H](C)C(=O)N(C)[C@@H](CC(C)C)C(=O)N(C)[C@@H](CC(C)C)C(=O)N(C)[C@@H](C(C)C)C(=O)N1C (stereo in doubt) . Is its IC50 below 9 µM?
[out] false (0)

[in] Item C/C=C/C[C@@H](C)[C@@H](O)[C@H]1C(=O)N[C@@H](CC)C(=O)N(C)[C@H](C)C(=O)N(C)[C@@H]([C@H](C)CCC(C)(C)O)C(=O)N[C@@H](C(C)C)C(=O)N(C)[C@@H](CC(C)C)C(=O)N[C@@H](C)C(=O)N[C@H](C)C(=O)N(C)[C@@H](CC(C)C)C(=O)N(C)[C@@H](CC(C)C)C(=O)N(C)[C@@H](C(C)C)C(=O)N1C [Compound 2.12] (cyclo(A[dA][NMeL][NMeL][NMeV][MeBmt][Abu][dNMeA][X18]V[NMeL])) : IC50 beneath 9 µM, strictly?
[out] true (1)

[in] State whether 9 µM exceeds IC50 recorded for C/C=C/C[C@@H](C)[C@@H](O)[C@H]1C(=O)N[C@@H](CC)C(=O)N(C)[C@H](C)C(=O)N(C)[C@@H]([C@@H](C)CN2CCO[C@H](COC)C2)C(=O)N[C@@H](C(C)C)C(=O)N(C)[C@@H](CC(C)C)C(=O)N[C@@H](C)C(=O)N[C@H](C)C(=O)N(C)[C@@H](CC(C)C)C(=O)N(C)[C@@H](CC(C)C)C(=O)N(C)[C@@H](C(C)C)C(=O)N1C [Compound 2.17.11] (cyclo(A[dA][NMeL][NMeL][NMeV][MeBmt][Abu][dNMeA][X1]V[NMeL])) .
[out] false (0)

[in] Consider C/C=C/C[C@@H](C)[C@@H](O)[C@H]1C(=O)N[C@@H](CC)C(=O)N(C)[C@H](C)C(=O)N(C)[C@@H]([C@H](C)COC(=O)N2CCN(CC)CC2)C(=O)N[C@@H](C(C)C)C(=O)N(C)[C@@H](CC(C)C)C(=O)N[C@@H](C)C(=O)N[C@H](C)C(=O)N(C)[C@@H](CC(C)C)C(=O)N(C)[C@@H](CC(C)C)C(=O)N(C)[C@@H](C(C)C)C(=O)N1C [Compound 2.5.24] (cyclo(A[dA][NMeL][NMeL][NMeV][MeBmt][Abu][dNMeA][X56]V[NMeL])) . Does its IC50 lie strictly below 9 µM?
[out] true (1)

[in] Here's an entry: C/C=C/C[C@@H](C)[C@@H](O)[C@H]1C(=O)N[C@@H](CC)C(=O)N(C)[C@H](CCCO)C(=O)N(C)[C@@H]([C@H](C)CS(C)(=O)=O)C(=O)N[C@@H](C(C)C)C(=O)N(C)[C@@H](CC(C)C)C(=O)N[C@@H](C)C(=O)N[C@H](C)C(=O)N(C)[C@@H](CC(C)C)C(=O)N(C)[C@@H](CC(C)C)C(=O)N(C)[C@@H](C(C)C)C(=O)N1C (stereo in doubt) . Is its IC50 below 9 µM?
[out] true (1)

[in] Threshold test, IC50 < 9 µM: C/C=C/C[C@@H](C)[C@@H](O)[C@H]1C(=O)N[C@@H](CC)C(=O)N(C)[C@H](C)C(=O)N(C)[C@@H]([C@H](C)CC#N)C(=O)N[C@@H](C(C)C)C(=O)N(C)[C@@H](CC(C)C)C(=O)N[C@@H](C)C(=O)N[C@H](C)C(=O)N(C)[C@@H](CC(C)C)C(=O)N(C)[C@@H](CC(C)C)C(=O)N(C)[C@@H](C(C)C)C(=O)N1C [Compound 2.10] (cyclo(A[dA][NMeL][NMeL][NMeV][MeBmt][Abu][dNMeA][X13]V[NMeL]))
[out] false (0)

[in] Would you kindly verify if IC50 of C/C=C/C[C@@H](C)[C@@H](O)[C@H]1C(=O)N[C@@H](CC)C(=O)N(C)[C@H](C)C(=O)N(C)[C@@H]([C@H](C)CCCN2CCC(C(N)=O)CC2)C(=O)N[C@@H](C(C)C)C(=O)N(C)[C@@H](CC(C)C)C(=O)N[C@@H](C)C(=O)N[C@H](C)C(=O)N(C)[C@@H](CC(C)C)C(=O)N(C)[C@@H](CC(C)C)C(=O)N(C)[C@@H](C(C)C)C(=O)N1C [Compound 2.19.2] (cyclo(A[dA][NMeL][NMeL][NMeV][MeBmt][Abu][dNMeA][X69]V[NMeL])) is strictly less than 9 µM?
[out] false (0)
